Hey, just so you know, these numbers are from ChEMBL document CHEMBL5303304.

test system: Fibroblast; assay: Incucyte cell viability with human fibroblast; assay type: toxicity, cell-based; conditions: 12 h, 10 µM, compound concentration 10 uM, replicate number 2; note: unitless GR value; below 1 slowed growth and below 0 cell loss
Hi all, reminder that labels come from Growth Rate, split as one: < 0.6; two: ≥ 0.6 and < 0.9; three: ≥ 0.9

Take a look at these entries with their results.
* C=CC(=O)Nc1ccc2[nH]c(=O)n(C3CCN(Cc4ccc(-c5ccc6c(c5)NC(=O)CO6)cc4)CC3)c2c1 [RL2578] | two
* C[C@@H]1Cc2c([nH]c3ccccc23)[C@@H](c2c(F)cc(/C=C/C(=O)O)cc2F)N1CC(C)(C)F [AZD-9496] | two
* Cn1c(Nc2c(Cl)cccc2Cl)nc2ccc3nc[nH]c(=O)c3c21 | one
* COC[C@@H](C)N[C@H]1CC[C@H](Nc2cc(-c3cccc(NCC4(C#N)CCOCC4)n3)c(Cl)cn2)CC1 | one
* O=C(N[C@H](Cc1ccccc1)C(=O)O)c1cccc(OCc2cccnc2)c1.O=CO | two
* C[C@@H]1COCCN1c1cc(=O)n2c(n1)N(Cc1cncc(Cl)c1)[C@H](C(F)(F)F)CC2 | one
* Cc1cc(OCc2nc3ccccc3s2)ccc1NC(=O)Nc1ccc(Cl)c(Cl)c1 | three
* CCN(CC)C(=O)C1CN2CCc3cc(OC)c(OC)cc3C2CC1OC(C)=O (configuration not stated) [BENZQUINAMIDE] | three
* Fc1ccc(-c2nc(-c3ccc4ccccc4c3F)[nH]c2-c2ccncc2)cc1 | two
* O=C(Nc1ccc(S(=O)(=O)Nc2nccs2)cc1)C(c1ccccc1)c1ccccc1 | two

Would you kindly look at the next entry?
Kindly state the category for this compound: CC[C@@H](Nc1c(C#N)c(-c2ccc(-c3cccc(C)c3F)cc2)nc2cnccc12)C(=O)O [BAY-091]
one

* * *

tested on: HEK-293T; assay: Incucyte cell viability with HEK293T; assay type: toxicity, cell-based; details: human, 24 h, 10 µM, compound concentration 10 uM, replicate number 2; note: unitless GR value; below 1 slowed growth and below 0 cell loss
What Growth Rate was measured for each of the following?

The following compounds have reported results that may help.
* CNC(=O)c1c[nH]c2ccc(Nc3nccc(-c4ccccn4)n3)cc12 | 0.17
* C[C@]12CC[C@@H]3c4ccc(C(N)=O)cc4CC[C@H]3[C@@H]1CC=C2c1cncc(F)c1 | 0.4

Look up Growth Rate for this compound: CCNc1ccc(-c2nn(-c3ccccc3C)c3c2C(C)Cc2nc(NC(=O)OC)sc2-3)cn1.O=C(O)C(F)(F)F (stereo not drawn)
-0.01

* * *

test system: Fibroblast; assay: Incucyte cell viability with human fibroblast; format: toxicity, cell-based; details: 12 h, 10 µM, compound concentration 10 uM, replicate number 2; note: unitless GR value; below 1 slowed growth and below 0 cell loss
Give Y when the value for Growth Rate is at least 0.2. Give N when it is less.

Take a look at these entries with their results.
* CN(C)Cc1cccc(NC(=C2C(=O)Nc3cc(C(N)=O)ccc32)c2ccccc2)c1 | Y
* CCS(=O)(=O)c1ccc(OC)c(Nc2ncc(-c3cccc(F)c3)o2)c1 [GW621970X] | Y
* CSc1ccc(C[C@@H](C)C(=O)O)cc1Nc1nc(N2CC[C@H](N(C)C)C2)cc(C(F)F)c1C#N.O=C(O)C(F)(F)F | Y

Would you kindly look at the next entry?
Determine whether measured Growth Rate meets or exceeds 0.2 for `O=S(=O)(Nc1nnc2cc(OCC34CC5CC(CC(C5)C3)C4)c(C3CC3)cn12)C1CC1`
N

* * *

What Growth Rate was measured for each of the following?
tested on: HEK-293T; assay: Incucyte cell viability with HEK293T; format: toxicity, cell-based; details: human, 6 h, 10 µM, compound concentration 10 uM, replicate number 1; note: unitless GR value; below 1 slowed growth and below 0 cell loss
One number for each entry.

The following compounds have reported results that may help.
• CCCC(=O)C1CCN(c2ncnc3c2CN(C(=O)c2ccc(-c4ccccc4)cc2)CC3)CC1 = 0.24
• O=C(O)[C@]1(Cc2cccc(Nc3nccs3)n2)CC[C@@H](Oc2cccc(Cl)c2F)CC1 [MK-5108] = 0.9

Proceed to the following item.
Look up Growth Rate for this compound: `COc1cc(-c2cc([C@H](O)C3CC3)n3ncnc(N)c23)ccc1CO`
-0.7

* * *

system: HEK-293T; experiment: Incucyte cell viability with HEK293T; assay type: toxicity, cell-based; details: human, 18 h, 10 µM, compound concentration 10 uM, replicate number 2; note: unitless GR value; below 1 slowed growth and below 0 cell loss
What Growth Rate was measured for each of the following?
Answers are plain numbers.

The following molecules have reported results that may help.
• CCN(C(=O)c1cc(F)ccc1Oc1cncnc1N1CC2(CCN(C[C@H]3CC[C@H](NS(=O)(=O)CC)CC3)CC2)C1)C(C)C = 0.48
• O=c1[nH]c(CS[C@H]2CC[C@H](O)CC2)nc2cc(OCC3CC3)cc(F)c12 = 1
• O=C1c2c(Br)c(Br)c(Br)c(Br)c2C(=O)N1c1ncc[nH]1 = 0.74
• Cl.O=C1c2cccc3c2[C@H](CCC3)CN1[C@@H]1CN2CCC1CC2 [PALONOSETRON HYDROCHLORIDE] = 0.08
• CCOC(=O)c1cnn(-c2ccc(NC(=O)C(Cl)=C(Cl)Cl)cc2)c1C(F)(F)F = -0.25

Answer for every listed entry: what is its Growth Rate? The entries follow.
1. COc1cc(C(=O)NC2CCN(C)CC2)ccc1Nc1ncc(C(F)(F)F)c(NCc2ccc(C)cc2N(C)S(C)(=O)=O)n1.O=CO.O=CO
2. CCCCNc1ncc2c(-c3ccc(CN4CCN(C)CC4)cc3)cn([C@H]3CC[C@H](O)CC3)c2n1
3. CS(=O)(=O)CCNCc1ccc(-c2ccc3ncnc(Nc4ccc(OCc5cccc(F)c5)c(Cl)c4)c3c2)o1
4. CCn1c(-c2nc3cc(C(=O)N4CCCC(N)C4)ccc3n2C)cc2ccccc21.Cl (configuration not stated)

-0.33
-0.41
0.95
0.89

Answer for every listed entry: what is its Growth Rate? The entries follow.
1. Fc1cccc(-n2cnc3c(NCc4nc5ccc(F)c(F)c5[nH]4)nc(N4CCOCC4)nc32)c1
2. CCS(=O)(=O)Nc1cccc(Oc2cncc(Nc3ccc(I)cc3F)c2C(N)=O)c1

[-0.31, 0.58]

Answer for every listed entry: what is its Growth Rate? The entries follow.
1. CC(C)[C@H](C(=O)Nc1ccc(C(=O)NO)cc1)c1ccccc1
2. CCN(C)C(=O)c1ccc2c(c1)NC(=O)/C2=C(\NC1CCN(C)CC1)c1ccccc1
3. C[C@@H](C(N)=O)[C@H](N)c1nc2cc(C(C)(C)C)ccc2[nH]1
4. CN1CCN(C(=O)c2ccc3cc2OCCOCCNc2ccn4ncc-3c4n2)CC1

0.59
0.82
0.91
0.85

* * *

tested on: Fibroblast; experiment: Incucyte cell viability with human fibroblast; type: toxicity, cell-based; details: 18 h, 10 µM, compound concentration 10 uM, replicate number 2; note: unitless GR value; below 1 slowed growth and below 0 cell loss
What Growth Rate was measured for each of the following?
Answers are plain numbers.

The following molecules have reported results that may help.
- CC(C)(c1ccc(O)cc1)c1ccc(O)cc1: 0.7
- Br.CO[C@H]1CC=C2CCN3CCC4=C(CC(=O)OC4)[C@]23C1: 0.7
- CC(=O)Nc1c(F)cc(C(=O)N[C@H]2CC[C@H](O)CC2)cc1O[C@@H](C)c1ccccc1: 0.93
- Cc1cnc(Nc2ccc(C(=O)N3CCN(C)CC3)cc2)nc1N[C@@H]1CCC[C@@H]1C(N)=O: 0.56
- O=C(CCSCc1ccco1)NNC(=O)N1Cc2ccccc2Oc2ccc(Cl)cc21: 0.53
- O=C(Nc1ccc(-n2nc(C(F)(F)F)cc2C(F)(F)F)cc1)c1ccncc1F: 0.72

Answer for every listed entry: what is its Growth Rate? The entries follow.
1. COc1cc(C(=O)O)ncc1C#Cc1ccccc1NS(=O)(=O)c1cccc2c(N(C)C)ccnc12
2. COc1cc(C(=O)NC2CCN(C)CC2)ccc1Nc1ncc2c(n1)N(C1CCCC1)CC(F)(F)C(=O)N2C
3. COC[C@@H](C)N[C@H]1CC[C@H](Nc2cc(-c3cccc(NCC4(C#N)CCOCC4)n3)c(Cl)cn2)CC1

1: 0.99; 2: 0.45; 3: -0.22

Answer for every listed entry: what is its Growth Rate? The entries follow.
1. COCCNc1nc2ccc(C#CC3(O)CCCCC3)cc2n1-c1ccnc(N)n1
2. COc1ccc2c(O[C@@H]3C[C@H]4C(=O)N[C@]5(C(=O)NS(=O)(=O)C6(C)CC6)CC5/C=C\CCCCC[C@H](NC(=O)c5ccn(C)n5)C(=O)N4C3)cc(OC(C)C)nc2c1C (some centres not stated)
3. O=C(O)CNC(=O)c1c(O)c2ccccc2n(Cc2ccccc2)c1=O

1. 0.28
2. 0.84
3. 0.94

Answer for every listed entry: what is its Growth Rate? The entries follow.
1. Cn1c(C(=O)N[C@@H](CO)c2ccc(C(=O)O)cc2)cc2cc(Cl)ccc21
2. Cl.O=C(NCCN1CCC2(CC1)C(=O)NCN2c1cccc(F)c1)c1ccc2ccccc2c1
3. Cc1nc2cccnc2n2c(-c3cc([C@@]4(O)CCCOC4)ccc3Cl)nnc12
4. CC[C@H](Nc1ncnc2[nH]cnc12)c1nc2cccc(F)c2c(=O)n1-c1ccccc1

0.69
-0.07
0.74
0.95

Look up Growth Rate for this molecule: `COc1cnccc1Nc1nc(-c2nn(Cc3c(F)cc(OCCO)cc3F)c3ccccc23)ncc1OC`
-0.07
